Data credit: patent US9815854B2

System: primary human fibroblasts derived from IPF patients (LL29 cells)
Method: Inhibition of the fibrotic process in TGF-β1-treated primary human fibroblasts from IPF patients (αSMA staining)
Assay type: cell-based
Condition Set: Fibroblast, 96 h, TGF-β1 20 ng/mL, 4 days, read-out: Inhibition of fibrosis EC50
Binary label based on EC50 with cut-off 300 nM: below gives Fulfilled, not below gives Not fulfilled.

[
  {
    "Chem Smiles": "CC(C)Nc1cncc(-c2cc3c(-c4nc5c(-c6cc(F)cc(NCCN(C)C)c6)ccnc5[nH]4)n[nH]c3cn2)c1",
    "Assigned Category": "Not fulfilled"
  },
  {
    "Chem Smiles": "CS(=O)(=O)NCc1cc(F)cc(-c2ccnc3[nH]c(-c4n[nH]c5cnc(-c6cncc(CNCc7ccccc7)c6)cc45)nc23)c1",
    "Assigned Category": "Fulfilled"
  },
  {
    "Chem Smiles": "CCNCc1cncc(-c2cc3c(-c4nc5c(-c6ccccn6)ccnc5[nH]4)n[nH]c3cn2)c1",
    "Assigned Category": "Fulfilled"
  },
  {
    "Chem Smiles": "CCCC(=O)Nc1cncc(-c2cc3c(-c4nc5c(-c6cccc(F)c6)ccnc5[nH]4)n[nH]c3cn2)c1",
    "Assigned Category": "Fulfilled"
  },
  {
    "Chem Smiles": "CN1CCN(c2ccnc3[nH]c(-c4n[nH]c5cnc(-c6cncc(CN7CCCCC7)c6)cc45)nc23)CC1",
    "Assigned Category": "Fulfilled"
  },
  {
    "Chem Smiles": "CCCC(=O)Nc1cncc(-c2cc3c(-c4nc5c(-c6cccs6)ccnc5[nH]4)n[nH]c3cn2)c1",
    "Assigned Category": "Fulfilled"
  },
  {
    "Chem Smiles": "c1cncc(-c2cc3c(-c4nc5cccnc5[nH]4)n[nH]c3cn2)c1",
    "Assigned Category": "Not fulfilled"
  },
  {
    "Chem Smiles": "CC(C)C(=O)Nc1cncc(-c2cc3c(-c4nc5c(N6CCN(C)CC6)ccnc5[nH]4)n[nH]c3cn2)c1",
    "Assigned Category": "Not fulfilled"
  },
  {
    "Chem Smiles": "O=C(Nc1cncc(-c2cc3c(-c4nc5c(-c6cccs6)ccnc5[nH]4)n[nH]c3cn2)c1)C1CC1",
    "Assigned Category": "Not fulfilled"
  },
  {
    "Chem Smiles": "CC(C)Nc1cncc(-c2cc3c(-c4nc5c(-c6ccc(F)cc6)ccnc5[nH]4)n[nH]c3cn2)c1",
    "Assigned Category": "Fulfilled"
  },
  {
    "Chem Smiles": "CCCC(=O)Nc1cncc(-c2cc3c(-c4nc5c(-c6ccc(F)cc6)ccnc5[nH]4)n[nH]c3cn2)c1",
    "Assigned Category": "Fulfilled"
  },
  {
    "Chem Smiles": "Nc1cncc(-c2cc3c(-c4nc5c(-c6ccccc6F)ccnc5[nH]4)n[nH]c3cn2)c1",
    "Assigned Category": "Fulfilled"
  },
  {
    "Chem Smiles": "CC(C)Nc1cncc(-c2cc3c(-c4nc5c(-c6cccnc6)ccnc5[nH]4)n[nH]c3cn2)c1",
    "Assigned Category": "Not fulfilled"
  },
  {
    "Chem Smiles": "Oc1cncc(-c2cc3c(-c4nc5c(-c6cccc(F)c6)ccnc5[nH]4)n[nH]c3cn2)c1",
    "Assigned Category": "Fulfilled"
  },
  {
    "Chem Smiles": "CN1CCN(c2ccnc3[nH]c(-c4n[nH]c5cnc(-c6cncnc6)cc45)nc23)CC1",
    "Assigned Category": "Not fulfilled"
  },
  {
    "Chem Smiles": "CCCC(=O)Nc1cncc(-c2cc3c(-c4nc5c(N6CCCCC6)ccnc5[nH]4)n[nH]c3cn2)c1",
    "Assigned Category": "Fulfilled"
  },
  {
    "Chem Smiles": "CCC(=O)Nc1cncc(-c2cc3c(-c4nc5c(N6CCCCC6)ccnc5[nH]4)n[nH]c3cn2)c1",
    "Assigned Category": "Not fulfilled"
  },
  {
    "Chem Smiles": "CC(C)(C)C(=O)Nc1cncc(-c2cc3c(-c4nc5c(-c6ccccc6F)ccnc5[nH]4)n[nH]c3cn2)c1",
    "Assigned Category": "Fulfilled"
  },
  {
    "Chem Smiles": "CC(=O)c1ccc(-c2ccnc3[nH]c(-c4n[nH]c5cnc(-c6cncc(NC(=O)CC(C)(C)C)c6)cc45)nc23)s1",
    "Assigned Category": "Not fulfilled"
  },
  {
    "Chem Smiles": "CC(=O)c1ccc(-c2ccnc3[nH]c(-c4n[nH]c5cnc(-c6cncc(NC(=O)C7CCCCC7)c6)cc45)nc23)s1",
    "Assigned Category": "Not fulfilled"
  },
  {
    "Chem Smiles": "O=C(Nc1cncc(-c2cc3c(-c4nc5cccnc5[nH]4)n[nH]c3cn2)c1)C1CCCCC1",
    "Assigned Category": "Not fulfilled"
  },
  {
    "Chem Smiles": "CS(=O)(=O)NCc1cc(F)cc(-c2ccnc3[nH]c(-c4n[nH]c5cnc(-c6cncnc6)cc45)nc23)c1",
    "Assigned Category": "Not fulfilled"
  },
  {
    "Chem Smiles": "CN(C)Cc1cncc(-c2cc3c(-c4nc5c(N6CCCCC6)ccnc5[nH]4)n[nH]c3cn2)c1",
    "Assigned Category": "Not fulfilled"
  },
  {
    "Chem Smiles": "CC(C)Nc1cncc(-c2cc3c(-c4nc5c(-c6cccs6)ccnc5[nH]4)n[nH]c3cn2)c1",
    "Assigned Category": "Not fulfilled"
  },
  {
    "Chem Smiles": "FC1(F)CCN(Cc2cncc(-c3cc4c(-c5nc6c(-c7cccs7)ccnc6[nH]5)n[nH]c4cn3)c2)C1",
    "Assigned Category": "Fulfilled"
  },
  {
    "Chem Smiles": "Cc1ccc(-c2ccnc3[nH]c(-c4n[nH]c5cnc(-c6cncc(NC(=O)C(C)C)c6)cc45)nc23)s1",
    "Assigned Category": "Fulfilled"
  },
  {
    "Chem Smiles": "CN(C)CCNc1cc(F)cc(-c2ccnc3[nH]c(-c4n[nH]c5cnc(-c6cncc(CNCC7CCCC7)c6)cc45)nc23)c1",
    "Assigned Category": "Fulfilled"
  }
]

----------
Test system: primary human fibroblasts derived from IPF patients (LL29 cells)
Method: Inhibition of the fibrotic process in TGF-β1-treated primary human fibroblasts from IPF patients (αSMA staining)
Assay type: cell-based
Condition Set: Fibroblast, 96 h, TGF-β1 20 ng/mL, 4 days, read-out: Inhibition of fibrosis EC50
Binary label based on EC50 with cut-off 200 nM: below gives condition met, not below gives condition not met.

[
  {
    "Chem Smiles": "Cc1ncc(-c2cc3c(-c4nc5c(-c6cccc(F)c6)ccnc5[nH]4)n[nH]c3cn2)n1C",
    "Subject Of Test": "primary human fibroblasts derived from IPF patients (LL29 cells)",
    "Assigned Category": "condition not met"
  },
  {
    "Chem Smiles": "CCCC(=O)Nc1cncc(-c2cc3c(-c4nc5c(-c6ccsc6)ccnc5[nH]4)n[nH]c3cn2)c1",
    "Subject Of Test": "primary human fibroblasts derived from IPF patients (LL29 cells)",
    "Assigned Category": "condition met"
  },
  {
    "Chem Smiles": "CN1CCN(c2ccnc3[nH]c(-c4n[nH]c5cnc(-c6cncc(NC(=O)C7CCCC7)c6)cc45)nc23)CC1",
    "Subject Of Test": "primary human fibroblasts derived from IPF patients (LL29 cells)",
    "Assigned Category": "condition met"
  },
  {
    "Chem Smiles": "CCCC(=O)Nc1cncc(-c2cc3c(-c4nc5c(-c6ccccc6F)ccnc5[nH]4)n[nH]c3cn2)c1",
    "Subject Of Test": "primary human fibroblasts derived from IPF patients (LL29 cells)",
    "Assigned Category": "condition not met"
  },
  {
    "Chem Smiles": "CCCC(=O)Nc1cncc(-c2cc3c(-c4nc5c(-c6ccoc6)ccnc5[nH]4)n[nH]c3cn2)c1",
    "Subject Of Test": "primary human fibroblasts derived from IPF patients (LL29 cells)",
    "Assigned Category": "condition met"
  },
  {
    "Chem Smiles": "Cc1ccc(-c2ccnc3[nH]c(-c4n[nH]c5cnc(-c6cncc(CN7CCCCC7)c6)cc45)nc23)s1",
    "Subject Of Test": "primary human fibroblasts derived from IPF patients (LL29 cells)",
    "Assigned Category": "condition not met"
  },
  {
    "Chem Smiles": "CC(C)(C)C(=O)Nc1cncc(-c2cc3c(-c4nc5c(-c6cccc(F)c6)ccnc5[nH]4)n[nH]c3cn2)c1",
    "Subject Of Test": "primary human fibroblasts derived from IPF patients (LL29 cells)",
    "Assigned Category": "condition met"
  }
]

----------
System: primary human fibroblasts derived from IPF patients (LL29 cells)
Method: Inhibition of the fibrotic process in TGF-β1-treated primary human fibroblasts from IPF patients (αSMA staining)
Format: cell-based
Condition Set: Fibroblast, 96 h, TGF-β1 20 ng/mL, 4 days, read-out: Inhibition of fibrosis EC50
pEC50: −log10 of the molar value.
Property Measured: pEC50

[
  {
    "Molecule": "CC(C)(C)CC(=O)Nc1cncc(-c2cc3c(-c4nc5c(-c6ccccc6F)ccnc5[nH]4)n[nH]c3cn2)c1 [Compound 68]",
    "Relation Qualifier": "=",
    "Measured": 7.05
  },
  {
    "Molecule": "O=C(Nc1cncc(-c2cc3c(-c4nc5c(-c6ccc(F)cc6)ccnc5[nH]4)n[nH]c3cn2)c1)C1CCC1 [Compound 46]",
    "Relation Qualifier": "=",
    "Measured": 6.62
  },
  {
    "Molecule": "CC(C)C(=O)Nc1cncc(-c2cc3c(-c4nc5c(-c6cccnc6)ccnc5[nH]4)n[nH]c3cn2)c1 [Compound 87]",
    "Relation Qualifier": "≤",
    "Measured": 5.00
  },
  {
    "Molecule": "FC1(F)CCN(Cc2cncc(-c3cc4c(-c5nc6c(N7CCCCC7)ccnc6[nH]5)n[nH]c4cn3)c2)C1 [Compound 181]",
    "Relation Qualifier": "=",
    "Measured": 7.28
  }
]
